- Tested on: MB468
- experimental protocol: Proliferation assay (Calcein AM viability, 72 hours)
- Format: cell-based
- cond: 72 h, read-out: EC50 rating according to the proliferation assay (MB468)
parameter: EC50

Given the compound CN(C)CCCOc1nc(CN2CCN(C(c3ccc(Cl)cc3)c3ccc(Cl)cc3)CC2)nc2ccccc12 , what is its reported EC50?
> 6 µM

* * *

- study system: GST-p53 DNA binding domain (aa 92-aa 312) (Homo sapiens, UniProt P04637)
- Sequence (P04637 92-312): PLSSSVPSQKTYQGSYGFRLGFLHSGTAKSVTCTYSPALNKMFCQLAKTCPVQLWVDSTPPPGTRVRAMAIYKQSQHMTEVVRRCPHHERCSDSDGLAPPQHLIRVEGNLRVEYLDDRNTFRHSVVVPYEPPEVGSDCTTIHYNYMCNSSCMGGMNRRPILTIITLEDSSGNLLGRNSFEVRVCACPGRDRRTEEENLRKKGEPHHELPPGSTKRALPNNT
- experimental protocol: Scintillation Proximity Assay (SPA), displacement of 3H STANDARD COMPOUND
- cond: 1 h; 2 ug/mL of drug; lower is better; read-out: % Residual T @ 2 ug/mL rating according to scintillation proximity assay (SPA)
remaining activity at 2 µg/mL for assorted molecules

| molecule | remaining activity at 2 µg/mL |
| --- | --- |
| CN(C)CCC[C@H](Nc1nc(CN2CCN(C(c3ccc(Cl)cc3)c3ccc(Cl)cc3)CC2)nc2ccccc12)C(N)=O | > 80% |
| CCOC(=O)[C@H](CCN(C)C)Nc1nc(CN2CCN(C(c3ccc(Cl)cc3)c3ccc(Cl)cc3)CC2)nc2ccccc12 | 40 to 80% |
| CN(C)CCCNc1nc(CN2CCN(C(c3ccccc3)c3ccc(OC(F)(F)F)cc3)CC2)nc2ccccc12 (single isomer, unassigned; (+)) [11 isomer 1] | 20 to 40% |
| CN(C)CCCC[C@H](Nc1nc(CN2CCN(C(c3ccc(Cl)cc3)c3ccc(Cl)cc3)CC2)nc2ccccc12)C(N)=O | 40 to 80% |

Given the molecule CN(C)CC[C@H](Nc1nc(CN2CCN(C(c3ccc(Cl)cc3)c3ccc(Cl)cc3)CC2)nc2ccccc12)C(N)=O , what is its reported remaining activity at 2 µg/mL?
40 to 80%

Given the molecule CN(C)CCCNc1nc(CN2CCN(C(c3ccc(Cl)cc3)c3ccc(Cl)cc3)CC2)nc2ccccc12 , what is its reported remaining activity at 2 µg/mL?
0 to 20%

Given the molecule CC(C)COC(=O)[C@H](CCCN(C)C)Nc1nc(CN2CCN(C(c3ccc(Cl)cc3)c3ccc(Cl)cc3)CC2)nc2ccccc12 , what is its reported remaining activity at 2 µg/mL?
> 80%

* * *

- study system: GST-p53 DNA binding domain (aa 92-aa 312) (Homo sapiens, UniProt P04637)
- experimental protocol: Scintillation Proximity Assay (SPA), displacement of 3H STANDARD COMPOUND
- cond: 1 h; 2 ug/mL of drug; lower is better; read-out: SPA ASSAY % Residual T @ 2 ug/mL of drug (Average of)
remaining activity at 2 µg/mL for assorted compounds
Respond with the bare value in %.

| compound | reading |
| --- | --- |
| CCC(C)(C)C1CCC(N2CCN(Cc3nc(NCCCN(C)C)c4ccccc4n3)CC2)CC1 (centres unmarked) | 38.1 |
| CN(C)CCCNc1nc(CN2CCN(Cc3cccc4cc[nH]c34)CC2)nc2ccccc12 | 37.9 |
| COC(=O)[C@@H](Nc1nc(CN2CCN(C(=O)Nc3ccc(C(C)C)cc3)CC2)nc2ccccc12)C(C)C | 39.5 |

So what remaining activity at 2 µg/mL did CN(C)CCCNc1nc(CN2CCN(Cc3cccc4ccccc34)CC2)nc2ccccc12 get with GST-p53 DNA binding domain (aa 92-aa 312) (Homo sapiens, UniProt P04637)?
27.9

So what remaining activity at 2 µg/mL did CN(C)CCCNc1nc(CN2CCN(C(c3ccc(Cl)cc3)c3ccc(Cl)cc3)CC2)nc2ccccc12 get with GST-p53 DNA binding domain (aa 92-aa 312) (Homo sapiens, UniProt P04637)?
16.1

So what remaining activity at 2 µg/mL did CN(C)CCCNc1nc(CN2CCN(C(c3ccccc3)c3ccc(OC(F)(F)F)cc3)CC2)nc2ccccc12 (centres unmarked) get with GST-p53 DNA binding domain (aa 92-aa 312) (Homo sapiens, UniProt P04637)?
27.9

So what remaining activity at 2 µg/mL did CN(C)CCCNc1nc(CN2CCN(C(=O)Nc3ccc(Cl)c(Cl)c3)CC2)nc2ccccc12 get with GST-p53 DNA binding domain (aa 92-aa 312) (Homo sapiens, UniProt P04637)?
29.9

So what remaining activity at 2 µg/mL did COc1ccc(NC(=O)N2CCN(Cc3nc(NCCCN(C)C)c4ccccc4n3)CC2)cc1 get with GST-p53 DNA binding domain (aa 92-aa 312) (Homo sapiens, UniProt P04637)?
38
